Target: T1, Anti-CD28 Fab (SEQ ID NOs: 696, 697)
T1 construct: Biotinylated and captured on neutravidin coated plates in the phage ELISA
T1 sequence (VH, as listed by the source, chain 1 of 2): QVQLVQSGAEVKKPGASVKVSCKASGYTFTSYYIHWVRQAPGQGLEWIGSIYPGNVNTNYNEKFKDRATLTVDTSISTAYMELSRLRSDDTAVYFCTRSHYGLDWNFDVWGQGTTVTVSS
T1 sequence (VL, as listed by the source, chain 2 of 2): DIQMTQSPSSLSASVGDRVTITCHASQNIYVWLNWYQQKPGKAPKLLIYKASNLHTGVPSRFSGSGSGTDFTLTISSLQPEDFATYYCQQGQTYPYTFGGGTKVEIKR
Experiment: phage ELISA; biotinylated anti-CD28 Fab on neutravidin plate, clonal phage supernatant, anti-M13 HRP
Anti-CD28 Fab signal (phage binding ELISA) overview
Simply state the number, no unit and no words.

1) YCDGHELMYMEKCL [Phage-1244]; 0.92
2) YCEGHAHEYMEKCV [Phage-1237]; 0.93
3) YCAGHLEMYMSKCL [Phage-1245]; 0.91
4) YCAGHAEIYMQKCL [Phage-1236]; 0.93
5) YCDGHSAEYLGKCL [Phage-1242]; 0.92
6) YCSGHVPEYMEKCL [Phage-1234]; 0.94
7) YCDGHIKEYMSKCL [Phage-1246]; 0.91

Alright, here's another binder for you.
Quote Anti-CD28 Fab signal (phage binding ELISA) reported for YCEGHTQAYLAKCL [Phage-1239] please.
0.93
